What growth inhibition was measured for each of the following?
PROTOCOL NOTES: NCI Yeast Anticancer Drug Screen. Data for the sgs1 mgt1 strain (AID 161);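 also: 0% = growth of cultures given vehicle only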
CONDITIONS: S. cerevisiae sgs1 mgt1 strain, at 50.0 µM, active compounds read high
This is part of a sample that, as a whole, favours compounds with a hit. Of some 79,000 tested, about 15% had one in any assay.
Give bare numbers, in %.

// worked examples, growth inhibition included
compound=CCCCN1C(=O)CC(=O)N(c2ccccc2)C1=O quantity_measured="growth inhibition" unit_annotation=% result_value=-3.8
compound="O=C(O)C(O)(c1ccccc1)c1ccsc1 (configuration not stated)" quantity_measured="growth inhibition" unit_annotation=% result_value=-8.6
compound=O=[N+]([O-])c1ccc2c(c1)[O][Sn]([I])([I])[O]2 quantity_measured="growth inhibition" unit_annotation=% result_value=8.8
compound=C[Si](C)(C)[C@@]1([Se]c2ccccc2)CC[C@@H]1C(=O)c1ccccc1 quantity_measured="growth inhibition" unit_annotation=% result_value=-26.4
compound=CN1CCN(C)C1=Nc1ccccc1/C=C/C=C1C(=O)N(C)C(=O)N(C)C1=O quantity_measured="growth inhibition" unit_annotation=% result_value=12.8

# per-item lookup of growth inhibition; items listed below
1. CCCOP(=O)(OCCC)C(=O)Nc1ccc(Br)cc1
2. O/N=C(/C(=N/O)c1ccccc1)c1ccccc1.O/N=C(/C(=N/O)c1ccccc1)c1ccccc1.[Ni]
3. CN(C)P1(=O)NCC(C(C)(C)C)CO1 (configuration not stated)
4. CC(=O)CP(=O)(O)O

## Result
1: 6.25; 2: 5.05; 3: -5.3; 4: -0.15

* * *

PROTOCOL NOTES: NCI Yeast Anticancer Drug Screen. Data for the sgs1 mgt1 strain (AID 161);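 also: 0% = growth of cultures given vehicle only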
CONDITIONS: S. cerevisiae sgs1 mgt1 strain, at 50.0 µM, active compounds read high
The panel holds about 79,000 compounds, 15% with a hit somewhere; the sample as a whole holds those more often.
Kindly return met if reported growth inhibition is no lower than 20%; return not met if it is lower.

molecule="Oc1ccccc1/C=N/C(O)C(Cl)(Cl)Cl (configuration not stated)" class_label=met
molecule="COc1ccc(C(CC(=O)O)CC(=O)N(CCCl)CCCl)cc1C (configuration not stated)" class_label="not met"
molecule="CCCC[N+]1(C)CCC(OC(=O)C(O)(c2ccccc2)C2CCCC2)C1 (configuration not stated)" class_label="not met"
molecule=CCCCCC[n+]1noc(N)c1-c1ccc(-c2c(N)on[n+]2CCCCCC)cc1 class_label=met
molecule=O=NN(c1ccccc1)c1ccccc1 class_label="not met"

## Task Please tell me: is the molecule "CC(=O)N(N=O)c1cc(Cl)ccc1Cl" at or over 20% in terms of growth inhibition?
## Result not met

## Task Please tell me: is the molecule "CC1=C(C)C(=O)O[C@@H]([C@](C)(O)[C@]2(O)CC[C@@]3(O)[C@@H]4C[C@H]5O[C@]56[C@@H](O)C=CC(=O)[C@]6(C)[C@H]4CC[C@]23C)C1" at or over 20% in terms of growth inhibition?
## Result not met

* * *

PROTOCOL NOTES: NCI Yeast Anticancer Drug Screen. Data for the rad50 strain (AID 155);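 also: 0% = growth of vehicle-only cultures of the same strain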
CONDITIONS: S. cerevisiae rad50 strain growth inhibition; at 50.0 µM; active compounds read high
The panel holds about 79,000 compounds, 15% with a hit somewhere; the sample as a whole holds those more often.
QUANTITY MEASURED: growth inhibition (%)
One number for each entry, in %.

compound=COc1cc2c(c(OC)c1OC)-c1ccc(SC)c(=O)cc1[C@@H](NC(C)=O)CC2 unit_annotation=% result_value=-12.4
compound=C/C=C\CC1(C/C=C/C)C(=O)NC(=O)NC1=O unit_annotation=% result_value=2.25
compound=O=NNc1cnc2ccccc2n1 unit_annotation=% result_value=48.5
compound=COc1cc2c(ccc3c4cc(OC)c(OC)cc4c[n+](C)c23)cc1O unit_annotation=% result_value=-21.7
compound=N#Cc1ccc(/C=C/C(=O)O)cc1 unit_annotation=% result_value=17.2
compound="CC(=O)O[C@@]12CO[C@@H]1CC(O)[C@@]1(C)C(=O)[C@H](O)C3=C(C)C(O)C[C@@](O)(C(OC(=O)c4ccccc4)C12)C3(C)C (some centres undefined)" unit_annotation=% result_value=-12.8

# per-item lookup of growth inhibition; items listed below
1. CCCCCCCCCCC[CH2][Hg][Cl]
2. O=C(O)c1ccccc1N(CCO)CCCl
3. O=S(=O)(F)c1ccccc1S(=O)(=O)Cl

## Result
8.6
-11.2
11.7
